# System: hRXR α, β, or γ
# measurement-protocol: Transactivation assay (RARE-Luc dual luciferase reporter in HEK-293 cells), activity relative to LG268
# Assay type: cell-based, human
# cond: compound at 1 µM, 24 h; luciferase activity expressed relative to LG268
measurement-type: Activity at 1 µM

Worked cases, answers included:
INSERT INTO results (compound, measurement_type, obs_value) VALUES
  ('CC1(C)CCC(C)(C)c2sc(N(c3ccc(C(=O)O)cn3)C3CC3)nc21 [Compound 37]', 'Activity at 1 µM', '***** (>1)'),
  ('Cc1c(NC(=O)c2ccc(C(=O)O)cc2)sc2c1C(C)(C)CCC2(C)C [Compound 25]', 'Activity at 1 µM', '* (<0.7)'),
  ('CC1(C)CCC(C)(C)c2sc(N(CC3CC3)c3ncc(C(=O)O)cn3)nc21 [Compound 43]', 'Activity at 1 µM', '* (<0.7)'),
  ('Cc1c(-n2nnc3cc(C(=O)O)ccc32)sc2c1C(C)(C)CCC2(C)C [Compound 28]', 'Activity at 1 µM', '* (<0.7)');

## Input Fill in: Activity at 1 µM of Cc1c(N(CC2CC2)c2ccc(C(=O)O)cn2)sc2c1C(C)(C)CCC2(C)C [Compound 20] is ___
## Output ***** (>1)

## Input Fill in: Activity at 1 µM of Cc1c(N(c2ccc(C(=O)O)cc2)C2CC2)sc2c1C(C)(C)CCC2(C)C [Compound 10] is ___
## Output ***** (>1)

## Input Fill in: Activity at 1 µM of CCN(c1ccc(C(=O)O)cn1)c1nc2c(s1)C(C)(C)CC(=O)C2(C)C [Compound 41] is ___
## Output * (<0.7)

## Input Fill in: Activity at 1 µM of Cc1c(N(CC2CC2)c2ccc(C(=O)O)cc2)sc2c1C(C)(C)CCC2(C)C [Compound 11] is ___
## Output **** (>0.9 to <1)

## Input Fill in: Activity at 1 µM of Cc1c(/C(=N/O)c2ccc(C(=O)O)cc2)sc2c1C(C)(C)CCC2(C)C [Compound 3] is ___
## Output ***** (>1)

## Input Fill in: Activity at 1 µM of CCn1c(-c2ccc(C(=O)O)cc2)ccc1-c1sc2c(c1C)C(C)(C)CCC2(C)C [Compound 32] is ___
## Output * (<0.7)

## Input Fill in: Activity at 1 µM of Cc1c(N(c2ncc(C(=O)O)cn2)C2CC2)sc2c1C(C)(C)CCC2(C)C [Compound 24] is ___
## Output *** (>0.8 and <0.9)
